# Experiment: in vivo
# Set-up: species or system mice
# Conditions: male, SCID, mouse, iv, 40 pmol, total radioactivity, Tumor/Liver ratio
Residues, ends and D or L forms follow the SMILES beside them. *: point of attachment. DOTA = O=C(O)CN1CCN(CC(=O)O)CCN(CC(=O)*)CCN(CC(=O)O)CC1; X1 = Cc1ccc(CCCC(=O)NCCOCCOCCOCCOCC(=O)*)cc1; βAla = NCCC(=O)O
Readout kind: tissue to tissue ratio at 72 h
Note: the reply should be a number with no unit written.

State the recorded tissue to tissue ratio at 72 h for this entry: CC[C@H](C)[C@H](NC(=O)[C@H](Cc1ccc(O)cc1)NC(=O)[C@@H]1CCCN1C(=O)[C@H](CCCNC(=N)N)NC(=O)[C@H](CCCNC(=N)N)NC(=O)[C@H](CCCCNC(=O)COCCOCCOCCOCCNC(=O)CCCc1ccc(C)cc1)NC(=O)CCNC(=O)CCNC(=O)CCNC(=O)CN1CCN(CC(=O)O)CCN(CC(=O)O)CCN(CC(=O)O)CC1)C(=O)N[C@@H](CC(C)C)C(=O)O [[^177Lu]Lu-DT14D, metal not drawn] ({DOTA-βAla-βAla-βAla}-K(X1)RRPYIL-OH) 1.44
